Exercise: state measured growth for each of the molecules provided.
test system: HT29 colon; assay: NCI-60 one-dose screen, 48 h (100 = growth as untreated, 0 = no growth, -100 = all killed); conditions: 10 µM
The panel holds about 83,000 compounds, 20% with a hit somewhere; the sample as a whole holds those more often. Calls of active or inactive are those of the source. Rule for the calls: active = growth percent below 10; inactive = the rest.

Exam item: Return growth measured with HT29 colon given this molecule: COC(=O)CCCCC1=CCC2C(=O)C=C(O)C2C1 (stereo not given)
Marked response: 104% (inactive)

Exam item: How about O=C1C=CC2=C3c4cc(O)c(O)cc4CC3(O)COC2=C1O (stereo not given) ?
Marked response: 100% (inactive)

Exam item: How about CCC(C)(C)C1CCC(O)CC1 (stereo not given) ?
Marked response: 97.5% (inactive)

Exam item: How about CC(C)OC(C(=O)O)c1ccccc1 (stereo not given) ?
Marked response: 109% (inactive)

Exam item: How about "NC(=S)N/N=C/c1ccc(N)cc1" ?
Marked response: 107% (inactive)

Exam item: How about CC1OC(Oc2c(-c3ccc(O)c(O)c3)oc3cc(O)cc(O)c3c2=O)C(O)C(O)C1O (stereo not given) ?
Marked response: 107% (inactive)

Exam item: How about "O=S(=O)(O)c1cc(O)c2c(N=Cc3ccccc3O)c(S(=O)(=O)O)ccc2c1" ?
Marked response: 103% (inactive)

Exam item: How about O=C(OCC(O)C1OC(c2ccccc2)OC(COC(=O)c2ccccc2)C1O)c1ccccc1 (stereo not given) ?
Marked response: 103% (inactive)

Exam item: How about "O=[N+]([O-])c1ccc(Cl)c(S(=O)(=O)O)c1" ?
Marked response: 138% (inactive)

Exam item: How about O=C1NC(=O)C2C(=O)NC(=O)C1C21CCc2ccccc21 (stereo not given) ?
Marked response: 123% (inactive)

---

tested on: UACC-257 melanoma; test: NCI-60 one-dose screen, 48 h (100 = growth as untreated, 0 = no growth, -100 = all killed); details: 10 µM
Compounds without any hit were thinned out: in the full panel of roughly 83,000, 20% have a hit.
Exercise: state measured growth for each of the compounds provided.
Report the value in % with no unit label.

Exam item: Param item = "CC(C)=C(NC(=O)c1ccccc1)C(=O)O" ; retrieve measured growth.
Marked response: 97.5

Exam item: How about "O=C1C[C@H](c2ccccc2)[C@H](c2ccccc2)C1" ?
Marked response: 107

Exam item: How about "CC(=O)NC(N)=S" ?
Marked response: 101

Exam item: How about "O=c1[nH][nH]c(=O)c2cc([N+](=O)[O-])ccc12" ?
Marked response: 110

Exam item: How about "CCOC(=O)CNN" ?
Marked response: 97

Exam item: How about "O=c1cc(-c2ccccc2)oc2c1ccc1ccccc12" ?
Marked response: 97.3

Exam item: How about CC1(O)CCCCC1O (centres undefined) ?
Marked response: 83.4

Exam item: How about "C[C@]12CC[C@@H]3c4ccc(OCC(=O)O)cc4CC[C@H]3[C@@H]1CCC2=O" ?
Marked response: 93.4

Exam item: How about "Cc1cc(Cc2cc(C)c(N)cc2N)c(N)cc1N" ?
Marked response: 85.3

Exam item: How about "CC(C)CCCC(=O)O" ?
Marked response: 117

Exam item: How about "O=C(O)CCCCNC(=O)c1ccccc1" ?
Marked response: 107

Exam item: How about "O=[N+]([O-])c1ccccc1N=Nc1ccc(O)cc1O" ?
Marked response: 103

Exam item: How about COc1ccc(C2OC(N)=C(O)C2=O)cc1OC (centres undefined) ?
Marked response: 106

Exam item: How about "O=c1cc(-c2ccccc2)[nH]c(=S)[nH]1" ?
Marked response: 109

Exam item: How about "Sc1ccc(Nc2c3ccccc3nc3ccccc23)cc1" ?
Marked response: 68.1

Exam item: How about "O=C1N(C[P+](c2ccccc2)(c2ccccc2)c2ccccc2)CCCN1C[P+](c1ccccc1)(c1ccccc1)c1ccccc1" ?
Marked response: 101

Exam item: How about CCCOC(=O)C(O)c1ccccc1 (centres undefined) ?
Marked response: 108

Exam item: How about CC1CCCC(CC(N)=O)CC1 (centres undefined) ?
Marked response: 104

Exam item: How about "CCOC(=O)c1cc(/C=C/c2cccc(Cl)c2)on1" ?
Marked response: 108

Exam item: How about "CCCCNC1(C#N)CCN(Cc2ccccc2)CC1" ?
Marked response: 107

Exam item: How about "C/C(=C\c1cc(Cl)ccc1OCC(=O)O)[N+](=O)[O-]" ?
Marked response: 102

Exam item: How about "NC(=O)N/N=C\c1ccco1" ?
Marked response: 85.1

Exam item: How about "Cc1cc2nc(CC(=O)c3cccc([N+](=O)[O-])c3)c(=O)[nH]c2cc1C" ?
Marked response: 97

Exam item: How about "CCOc1ccc2[nH]c(=S)sc2c1" ?
Marked response: 104

Exam item: How about "Nc1ccc(C(=O)c2ccc(N)c(Br)c2)cc1Br" ?
Marked response: 67.1

Exam item: How about "CCOC(=O)/C(=C/c1ccc(OC)cc1)N(CC)CC" ?
Marked response: 103

Exam item: How about "c1cc2cccc3c4cccc5cccc(c(c1)c23)c54" ?
Marked response: 125

Exam item: How about COc1nc(N)nc2c1ncn2C1OC(CO)CC1O (centres undefined) ?
Marked response: 111

Exam item: How about "Cc1ccc(N)cc1[N+](=O)[O-]" ?
Marked response: 98.7

Exam item: How about "Nc1ccc(N=Nc2ccc(O)cc2)c(N)n1" ?
Marked response: 97.9

Exam item: How about "Nc1ccccc1C(=O)Nc1ccc(Cl)cc1Cl" ?
Marked response: 86.5

Exam item: How about "S=C1CCCCCN1" ?
Marked response: 97.8

Exam item: How about "C[C@@H](c1ccccc1)[C@@H](C(=O)O)c1ccccc1" ?
Marked response: 98.8

Exam item: How about "COc1cc(C(=O)N/N=C/c2cccc([N+](=O)[O-])c2)cc(OC)c1OC" ?
Marked response: 76.3

Exam item: How about "COc1cc2nn(-c3ccccc3N)nc2cc1OC" ?
Marked response: 107

Exam item: How about "COc1cc(C(=O)NC(=S)Nc2ccc3ccccc3c2)cc(OC)c1OC" ?
Marked response: 90.7

Exam item: How about "COc1cccc(O)c1O" ?
Marked response: 72.3

Exam item: How about "O=C1C=C(Nc2ccc([N+](=O)[O-])cc2)c2ccccc2C1=O" ?
Marked response: 48.8

Exam item: How about "NC(=S)CN1CCOCC1" ?
Marked response: 117

Exam item: How about CC1SC(N)=NC1=O (centres undefined) ?
Marked response: 110

Exam item: How about "CCCCC(=O)c1ccc(OC)cc1" ?
Marked response: 91.2

Exam item: How about "Cc1cc(C(C)(C)C)cc(C)c1Br" ?
Marked response: 105

Exam item: How about "O=C(O)C(Cc1ccccc1)C(=O)O" ?
Marked response: 108

Exam item: How about "O=[N+]([O-])c1ccc(Cl)c(S(=O)(=O)O)c1" ?
Marked response: 96.6

Exam item: How about CN1C(=O)CN2CCc3ccccc3C2c2cc(Cl)ccc21 (centres undefined) ?
Marked response: 112

Exam item: How about OCC1OC(OC2C(O)C(CO)OC2(CO)OC2OC(CO)C(O)C(O)C2O)C(O)C(O)C1O (centres undefined) ?
Marked response: 97.6

Exam item: How about "CCC(=O)Oc1ccc(OC)cc1" ?
Marked response: 108

Exam item: How about "NCCC(=O)c1ccc(Cl)cc1" ?
Marked response: 101

Exam item: How about CC(C)C1CCCCC1O (centres undefined) ?
Marked response: 101
